target: zebrafish Mate8 (Danio rerio, UniProt A0A8M6YZ09); assay: DAPI inhibition assay, Mate8; type: cell-based
Sequence (A0A8M6YZ09 entry or part of it): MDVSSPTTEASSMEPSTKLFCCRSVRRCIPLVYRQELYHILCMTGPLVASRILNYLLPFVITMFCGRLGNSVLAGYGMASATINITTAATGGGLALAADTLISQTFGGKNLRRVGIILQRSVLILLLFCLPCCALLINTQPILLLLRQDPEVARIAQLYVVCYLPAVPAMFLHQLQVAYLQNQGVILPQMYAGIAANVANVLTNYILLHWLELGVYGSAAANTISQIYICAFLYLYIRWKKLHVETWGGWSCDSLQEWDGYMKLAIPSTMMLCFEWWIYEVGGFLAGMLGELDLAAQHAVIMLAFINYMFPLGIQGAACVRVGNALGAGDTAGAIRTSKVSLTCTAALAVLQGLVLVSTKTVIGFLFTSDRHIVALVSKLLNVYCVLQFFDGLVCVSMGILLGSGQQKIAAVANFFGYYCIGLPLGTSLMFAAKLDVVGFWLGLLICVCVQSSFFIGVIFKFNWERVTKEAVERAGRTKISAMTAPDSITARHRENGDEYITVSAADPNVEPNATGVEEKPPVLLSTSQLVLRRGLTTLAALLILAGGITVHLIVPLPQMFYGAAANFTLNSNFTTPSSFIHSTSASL
Form field: log10 of IC50 (one value per entry).
On a log10 scale: recorded IC50, unit µM.

[
  {
    "MOLECULE": "C[C@H](CCC(=O)O)[C@H]1CC[C@H]2[C@@H]3CC[C@@H]4C[C@H](O)CC[C@]4(C)[C@H]3C[C@H](O)[C@]12C [Deoxycholate, deoxycholate]",
    "log10 of IC50": 2.44
  },
  {
    "MOLECULE": "C[C@]12CC[C@H]3[C@@H](CCC4=CC(=O)CC[C@@]43C)[C@@H]1CC[C@@H]2O [Testosterone, testosterone]",
    "log10 of IC50": 1.70
  },
  {
    "MOLECULE": "C[C@]12C[C@H](O)[C@H]3[C@@H](CCC4=CC(=O)CC[C@@]43C)[C@@H]1CC[C@@H]2C(=O)CO [Corticosterone, corticosterone]",
    "log10 of IC50": 1.34
  },
  {
    "MOLECULE": "C[n+]1ccc(-c2cc[n+](C)cc2)cc1 [Paraquat, paraquat, reference compound]",
    "log10 of IC50": 3.80
  },
  {
    "MOLECULE": "CN/C(=N/CCSCc1nc[nH]c1C)NC#N [Cimetidine, cimetidine, reference compound]",
    "log10 of IC50": 0.65
  }
]

Turning to the following molecule.
// recorded log10 of IC50 for C[C@]12CCC(=O)C=C1CC[C@@H]1[C@@H]2CC[C@]2(C)C(=O)CC[C@@H]12 [Androstenedione, androstenedione] : 1.30

---

target: zebrafish Mate8 (Danio rerio); experiment: DAPI inhibition assay, Mate8; format: cell-based; settings: Mate8; inhibition of DAPI (1 μM) uptake; n = 3; NE = no effect in the compound solubility range; read-out: IC50
Where a name gives a salt, the structure may show the parent alone.
Form field: pIC50 (one value per entry).
Give only the number. pIC50 is defined as minus log10 of concentration in molar units.

[
  {
    "COMPOUND": "C[n+]1ccc(-c2ccccc2)cc1 [MPP^+, 1-methyl-4-phenylpyridinium, reference compound]",
    "pIC50": 3.01
  }
]

Turning to the following compound.
// recorded pIC50 for C[C@]12CC[C@H](OS(=O)(=O)O)CC1=CC[C@@H]1[C@@H]2CC[C@]2(C)C(=O)CC[C@@H]12 [DHEAS, dehydroepiandrosterone sulfate] : 4.57

---

Form field: IC50 (one value per entry).
target: zebrafish Mate4 (Danio rerio); assay: DAPI inhibition assay, Mate4; format: cell-based; conditions: Mate4; inhibition of DAPI (1 μM) uptake; n = 3; NE = no effect in the compound solubility range; read-out: IC50
Sequence (U3Q0C3 entry or part of it): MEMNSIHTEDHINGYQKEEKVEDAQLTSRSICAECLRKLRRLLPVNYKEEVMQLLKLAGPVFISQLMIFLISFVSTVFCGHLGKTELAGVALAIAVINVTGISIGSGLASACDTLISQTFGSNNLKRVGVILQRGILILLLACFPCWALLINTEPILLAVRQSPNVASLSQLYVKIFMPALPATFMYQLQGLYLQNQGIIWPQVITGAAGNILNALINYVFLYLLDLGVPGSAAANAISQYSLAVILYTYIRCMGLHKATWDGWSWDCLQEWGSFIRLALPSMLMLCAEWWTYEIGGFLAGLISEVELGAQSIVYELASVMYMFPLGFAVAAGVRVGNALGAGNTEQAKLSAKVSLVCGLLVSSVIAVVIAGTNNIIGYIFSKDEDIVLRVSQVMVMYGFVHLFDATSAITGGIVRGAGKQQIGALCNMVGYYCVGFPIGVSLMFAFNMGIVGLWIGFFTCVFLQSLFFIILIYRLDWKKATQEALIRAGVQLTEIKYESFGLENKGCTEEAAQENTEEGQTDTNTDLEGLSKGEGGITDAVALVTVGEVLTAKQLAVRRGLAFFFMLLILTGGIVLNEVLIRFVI
Where a name gives a salt, the structure may show the parent alone.
Report as a plain number; the unit µM is understood.

These solved cases illustrate the format of a correct answer.
[
  {
    "COMPOUND": "CC[N+](CC)(CC)CC [TEA, tetraethylammonium, reference compound]",
    "MEAS_VALUE": 5240
  },
  {
    "COMPOUND": "C[C@]12CC[C@H](OS(=O)(=O)O)CC1=CC[C@@H]1[C@@H]2CC[C@]2(C)C(=O)CC[C@@H]12 [DHEAS, dehydroepiandrosterone sulfate]",
    "MEAS_VALUE": 313
  }
]

Turning to the following compound.
// recorded IC50 for C[n+]1ccc(-c2ccccc2)cc1 [MPP^+, 1-methyl-4-phenylpyridinium, reference compound] : 434
